Tested on: Ramos cells
Experiment: Metabolomic quantification of PROTAC cellular concentration
Type: in vitro ADME, human
Conditions: 100 nM compound, 2 hours
Procedure: Raw data were analyzed using the MaxQuant software suite 1.6.0.16 (www.maxquant.org) with the Andromeda search engine2. […] Proteins were identified and quantified based on at least two unique peptides and based on the label -free quantification (LFQ) 3 values reported by Ma xQu ant. […] Proteins were excluded from analysis if within all three sets, there were less than three samples with directly detect ed and quantified protein. […]
outcome_measure: Effective cellular concentration

Data request: Report its Effective cellular concentration with Ramos cells as the test system: Nc1ncnc2c1c(-c1ccc(Oc3ccccc3)cc1)nn2C1CCCN(C(=O)C=CCCCCOCCOCCOCCOCCOc2cccc3c2C(=O)N(C2CCC(=O)NC2=O)C3=O)C1 (stereo not shown)
Data returned: 4.1 ± 0.7 pg compound / µg total protein

Data request: GET Effective cellular concentration where system = Ramos cells and item = Nc1ncnc2c1c(-c1ccc(Oc3ccccc3)cc1)nn2C1CCCN(C(=O)CCCCCCOCCOCCOCCOCCOc2cccc3c2C(=O)N(C2CCC(=O)NC2=O)C3=O)C1 (stereo not shown)
Data returned: 8.6 ± 2.6 pg compound / µg total protein

###

Please provide measured pIC50 for the entries that follow.
Molecular target: wild-type BTK (Homo sapiens)
Sequence (Q06187 whole entry, species assumed): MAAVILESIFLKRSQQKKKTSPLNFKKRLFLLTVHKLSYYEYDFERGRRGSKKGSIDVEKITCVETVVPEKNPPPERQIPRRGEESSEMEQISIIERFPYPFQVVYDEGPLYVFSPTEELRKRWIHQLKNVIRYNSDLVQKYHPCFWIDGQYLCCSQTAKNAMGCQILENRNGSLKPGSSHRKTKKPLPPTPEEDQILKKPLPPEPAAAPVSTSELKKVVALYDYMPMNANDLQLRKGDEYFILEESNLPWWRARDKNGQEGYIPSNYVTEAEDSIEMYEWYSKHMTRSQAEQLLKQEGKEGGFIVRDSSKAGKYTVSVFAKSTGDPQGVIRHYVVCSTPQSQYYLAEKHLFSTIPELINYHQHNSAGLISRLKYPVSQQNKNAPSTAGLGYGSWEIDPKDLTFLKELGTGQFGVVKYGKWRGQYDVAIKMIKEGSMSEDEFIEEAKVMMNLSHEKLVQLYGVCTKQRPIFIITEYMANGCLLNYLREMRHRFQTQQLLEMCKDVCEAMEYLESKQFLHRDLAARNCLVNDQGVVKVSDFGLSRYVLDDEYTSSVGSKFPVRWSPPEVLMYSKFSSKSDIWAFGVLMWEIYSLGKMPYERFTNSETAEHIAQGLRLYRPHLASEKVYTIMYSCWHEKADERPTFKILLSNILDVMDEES
API: returns pIC50 as number; meaning -log10 of concentration in mol/L.

Data request: Consider the compound Nc1ncnc2c1c(-c1ccc(Oc3ccccc3)cc1)nn2C1CCCN(C(=O)C=CCOCCOCCOCCOCCOCCOc2cccc3c2C(=O)N(C2CCC(=O)NC2=O)C3=O)C1 (stereo not drawn) and give its recorded pIC50.
Data returned: 8.70

Data request: Identify the reported pIC50 for the following entry. Nc1ncnc2c1c(-c1ccc(Oc3ccccc3)cc1)nn2C1CCCN(C(=O)C=CCCCCOCCOCCOCCOCCOc2cccc3c2C(=O)N(C2CCC(=O)NC2=O)C3=O)C1 (stereo not drawn)
Data returned: 7.85

Data request: Read the entry N#CC(=CCOCCOCCOCCOCCOCCOc1cccc2c1C(=O)N(C1CCC(=O)NC1=O)C2=O)C(=O)N1CCCC(n2nc(-c3ccc(Oc4ccccc4)cc3)c3c(N)ncnc32)C1 (stereo not drawn) and write its reported pIC50.
Data returned: 7.92

###

Test system: Ramos cells
Test: Label-free quantitative proteomics in Ramos cells
Type: cell-based, Homo sapiens
Details: proteins MAP1LC3B;MAP1LC3B2;MAP1LC3A, 50 nM, 24 h, Log2 fold-change vs DMSO
Hi there, I'd appreciate the recorded Difference for 50 nM, MAP1LC3B;MAP1LC3B2;MAP1LC3A for every entry that follows.
Please respond with just the number, no unit label.

Data request: Name the value of Difference for 50 nM, MAP1LC3B;MAP1LC3B2;MAP1LC3A reported for N#CC(=CCCCCOCCOCCOCCOCCOc1cccc2c1C(=O)N(C1CCC(=O)NC1=O)C2=O)C(=O)N1CCCC(n2nc(-c3ccc(Oc4ccccc4)cc3)c3c(N)ncnc32)C1 (centres unmarked) when tested on Ramos cells.
Data returned: -0.1598

Data request: Write Difference for 50 nM, MAP1LC3B;MAP1LC3B2;MAP1LC3A of Nc1ncnc2c1c(-c1ccc(Oc3ccccc3)cc1)nn2C1CCCN(C(=O)C=CCCCCOCCOCCOCCOCCOc2cccc3c2C(=O)N(C2CCC(=O)NC2=O)C3=O)C1 (centres unmarked) ; system used: Ramos cells
Data returned: -0.3401

Data request: Look up and report measured Difference for 50 nM, MAP1LC3B;MAP1LC3B2;MAP1LC3A (Ramos cells) for the following compound: Nc1ncnc2c1c(-c1ccc(Oc3ccccc3)cc1)nn2C1CCCN(C(=O)C=CCOCCOCCOCCOCCOCCOc2cccc3c2C(=O)N(C2CCC(=O)NC2=O)C3=O)C1 (centres unmarked)
Data returned: 0.1478

Data request: Send back Ramos cells Difference for 50 nM, MAP1LC3B;MAP1LC3B2;MAP1LC3A of Nc1ncnc2c1c(-c1ccc(Oc3ccccc3)cc1)nn2C1CCCN(C(=O)CCCCCCOCCOCCOCCOCCOc2cccc3c2C(=O)N(C2CCC(=O)NC2=O)C3=O)C1 (centres unmarked) only.
Data returned: -0.1034

Data request: Param request: Difference for 50 nM, MAP1LC3B;MAP1LC3B2;MAP1LC3A | system Ramos cells | item CC(C)(C=C(C#N)C(=O)N1CCCC(n2nc(-c3ccc(Oc4ccccc4)cc3)c3c(N)ncnc32)C1)CCCOCCOCCOCCOCCOc1cccc2c1C(=O)N(C1CCC(=O)NC1=O)C2=O (centres unmarked)
Data returned: -0.1457
